# measured.target: MAB_4800 (Mycobacteroides abscessus)
# Sequence (B1MM83 entry or part of it): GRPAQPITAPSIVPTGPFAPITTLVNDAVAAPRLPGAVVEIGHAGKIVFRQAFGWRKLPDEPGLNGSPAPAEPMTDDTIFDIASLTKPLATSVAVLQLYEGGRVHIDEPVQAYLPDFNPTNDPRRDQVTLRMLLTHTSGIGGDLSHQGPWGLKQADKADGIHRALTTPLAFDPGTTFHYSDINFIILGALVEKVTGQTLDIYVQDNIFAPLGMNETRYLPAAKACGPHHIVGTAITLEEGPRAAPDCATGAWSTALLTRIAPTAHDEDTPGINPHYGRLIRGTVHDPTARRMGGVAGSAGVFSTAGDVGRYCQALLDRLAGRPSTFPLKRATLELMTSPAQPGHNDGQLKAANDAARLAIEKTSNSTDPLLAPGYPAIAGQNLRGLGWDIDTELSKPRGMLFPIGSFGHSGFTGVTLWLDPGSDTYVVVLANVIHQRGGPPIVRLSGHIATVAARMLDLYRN
# protocol.text: β-lactam IC50 by drug treatment then Bocillin FL labeling, in-gel fluorescence
# Format: binding
endpoint: IC50 (µM)
Report only the number, with the unit µM understood.

Record request: IC50 value, item C[C@@H](O)[C@H]1C(=O)N2C(C(=O)O)=C(SCCN=CN)C[C@H]12 [IPM, imipenem]
7

* * *

# measured.target: UniProt B1MDJ1
# Sequence (B1MDJ1 entry or part of it): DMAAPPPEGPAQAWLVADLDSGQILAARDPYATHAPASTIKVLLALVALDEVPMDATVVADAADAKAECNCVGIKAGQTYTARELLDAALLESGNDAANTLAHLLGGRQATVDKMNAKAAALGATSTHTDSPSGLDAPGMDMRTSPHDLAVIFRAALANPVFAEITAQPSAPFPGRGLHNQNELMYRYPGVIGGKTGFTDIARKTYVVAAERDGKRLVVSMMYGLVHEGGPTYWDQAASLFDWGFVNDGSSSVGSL
endpoint: IC50 (nM)
Your answer should be a plain number; it is taken to be in nM.

I'm curious: which IC50 was measured for CO[C@@]1(NC(=O)Cc2cccs2)C(=O)N2C(C(=O)O)=C(COC(N)=O)CS[C@@H]21 tested on UniProt B1MDJ1?
400

Record lookup: for UniProt B1MDJ1, what IC50 belongs to C[C@@H](O)[C@H]1C(=O)N2C(C(=O)O)=C(SCCN=CN)C[C@H]12 ?
2000

* * *

# measured.target: MAB_0330 (Mycobacteroides abscessus, UniProt B1MFM9)
# Sequence (B1MFM9 entry or part of it): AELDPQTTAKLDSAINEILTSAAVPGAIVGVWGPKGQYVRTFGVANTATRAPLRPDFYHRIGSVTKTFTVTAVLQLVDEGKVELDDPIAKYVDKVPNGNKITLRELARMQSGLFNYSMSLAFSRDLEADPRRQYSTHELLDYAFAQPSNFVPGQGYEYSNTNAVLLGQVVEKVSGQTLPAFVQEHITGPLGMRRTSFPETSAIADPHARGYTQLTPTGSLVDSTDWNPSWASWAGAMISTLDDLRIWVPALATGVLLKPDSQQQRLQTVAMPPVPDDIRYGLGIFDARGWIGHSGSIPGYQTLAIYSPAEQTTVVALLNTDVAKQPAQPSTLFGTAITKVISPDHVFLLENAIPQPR
# protocol.text: β-lactam IC50 by drug treatment then Bocillin FL labeling, in-gel fluorescence
# Type: binding
endpoint: IC50 (µM)
Write the answer as a number in µM, unit excluded.

Quick one: IC50 of C[C@@H](O)[C@H]1C(=O)N2C(C(=O)O)=C(SCCN=CN)C[C@H]12 [IPM, imipenem] ?
170

* * *

# measured.target: Ldt4 (Mycobacteroides abscessus)
# Sequence (B1MKW1 entry or part of it): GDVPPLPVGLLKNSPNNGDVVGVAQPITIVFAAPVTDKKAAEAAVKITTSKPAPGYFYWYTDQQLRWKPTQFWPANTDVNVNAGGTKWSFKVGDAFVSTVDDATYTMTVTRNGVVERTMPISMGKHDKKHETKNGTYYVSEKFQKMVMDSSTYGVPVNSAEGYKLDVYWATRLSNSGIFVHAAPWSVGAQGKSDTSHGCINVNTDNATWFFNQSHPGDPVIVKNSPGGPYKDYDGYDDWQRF
# protocol.text: β-lactam IC50 by drug treatment then Bocillin FL labeling, in-gel fluorescence
# Assay type: binding, Mycobacterium abscessus
# stated.conditions: IC50 Ldt4, 0.5 μM enzyme, drug 30 min 37 °C, then 10 µM Bocillin FL
endpoint: IC50

C[C@@H](O)[C@H]1C(=O)N2C(C(=O)O)=C(SCCN=CN)C[C@H]12 [IPM, imipenem]: 4 µM

In the following, a different compound is considered.
Could you share which IC50 value was measured for CO[C@@]1(NC(=O)Cc2cccs2)C(=O)N2C(C(=O)O)=C(COC(N)=O)CS[C@@H]21 [FOX, cefoxitin] ?
> 1000 µM

* * *

# measured.target: Ldt4 (Mycobacteroides abscessus)
# protocol.text: β-lactam IC50 by drug treatment then Bocillin FL labeling, in-gel fluorescence
# Format: binding, Mycobacterium abscessus
# stated.conditions: IC50 (best-fit value, example analysis Figure S8), Ldt4 with IPM, one experiment; 95% CI 1.796 to 11.10; R squared 0.8570
endpoint: pIC50
Bear in mind: pIC50 is minus log10 of a mol/L concentration; give just that figure.

// fetch Ldt4 (Mycobacteroides abscessus) pIC50 for C[C@@H](O)[C@H]1C(=O)N2C(C(=O)O)=C(SCCN=CN)C[C@H]12 [IPM, imipenem]
5.29
